Below are compounds with their IC50 as measured on Aurora A (Homo sapiens).
Sequence (O14965 whole entry): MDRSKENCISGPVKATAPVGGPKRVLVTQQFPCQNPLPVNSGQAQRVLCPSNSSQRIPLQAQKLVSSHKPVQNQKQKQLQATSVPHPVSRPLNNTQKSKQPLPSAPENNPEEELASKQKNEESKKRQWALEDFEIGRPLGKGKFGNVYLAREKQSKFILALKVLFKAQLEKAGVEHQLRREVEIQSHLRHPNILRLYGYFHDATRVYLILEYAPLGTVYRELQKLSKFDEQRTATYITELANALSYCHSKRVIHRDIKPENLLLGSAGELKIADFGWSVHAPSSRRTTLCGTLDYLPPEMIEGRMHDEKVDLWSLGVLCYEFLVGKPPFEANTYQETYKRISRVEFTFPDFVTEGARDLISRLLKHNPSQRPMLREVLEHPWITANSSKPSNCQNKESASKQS
One number for each entry, in nM.

See these solved cases before continuing.
compound	meas-value
O=C1NCCN1c1cccc(-c2cnc3[nH]cc(C4CC4)c3c2Cl)n1 [Compound 6]	9.5
O=C1NC2(CCNC2)C(=O)N1c1cccc(-c2cnc3[nH]cc(C4CC4)c3c2Cl)c1 (stereo not shown) [Compound 10]	27.4
O=C1NCCN1c1cccc(-c2cnc3[nH]cc(C4CC4)c3c2Cl)c1 [Compound 4]	22.9

Below: the item to evaluate.
Qu. Consider the compound shown here: CCc1c[nH]c2ncc(-c3cccc(N4CCNC4=O)c3)c(Cl)c12 [Compound 3] What is its recorded IC50?
Ans. 13.3

Where do the numbers come from? From patent US20260265247A1.
